For each of the compounds below, state its pKi.
target or test system: recombinant human CL receptor/RAMP1 (Homo sapiens, UniProt O60894+Q16602)
Construct: membranes
Sequence (Q16602 23-461): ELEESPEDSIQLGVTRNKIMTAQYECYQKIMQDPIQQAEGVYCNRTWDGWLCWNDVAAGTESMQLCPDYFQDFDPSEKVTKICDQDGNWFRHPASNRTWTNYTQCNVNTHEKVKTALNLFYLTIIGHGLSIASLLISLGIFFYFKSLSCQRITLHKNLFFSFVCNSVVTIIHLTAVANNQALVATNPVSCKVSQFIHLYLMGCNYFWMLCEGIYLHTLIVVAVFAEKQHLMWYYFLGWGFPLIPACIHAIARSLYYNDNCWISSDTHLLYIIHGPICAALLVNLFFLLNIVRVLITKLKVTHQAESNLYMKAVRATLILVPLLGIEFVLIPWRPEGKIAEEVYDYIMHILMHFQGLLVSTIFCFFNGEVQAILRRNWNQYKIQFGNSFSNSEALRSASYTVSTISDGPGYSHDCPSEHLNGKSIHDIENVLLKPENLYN
Sequence (O60894 27-148): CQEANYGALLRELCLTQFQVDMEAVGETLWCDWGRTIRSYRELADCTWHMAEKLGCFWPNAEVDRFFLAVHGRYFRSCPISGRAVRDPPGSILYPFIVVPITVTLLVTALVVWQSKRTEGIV
protocol details: Recombinant receptor binding assay (125I-hCGRP)
recorded conditions: membranes of HEK 293 cells expressing recombinant human CL receptor/RAMP1; 10 pM 125I-hCGRP
Answers are plain numbers, as −log10 of the molar value.

Example entries and their recorded answers appear below.
| smiles input | target or test system | reported |
| --- | --- | --- |
| C[C@@H]1[C@H](c2c(F)ccc(F)c2F)C[C@H](NC(=O)c2ccc3c(c2)C[C@@]2(C3)C(=O)NC(=O)N2C)C(=O)N1CC(F)(F)F | recombinant human CL receptor/RAMP1 (Homo sapiens, UniProt O60894+Q16602) | 10.32 |
| C[C@@H]1[C@H](c2c(F)c(F)cc(F)c2F)C[C@H](NC(=O)c2ccc3c(c2)C[C@@]2(C3)C(=O)NC(=O)N2C)C(=O)N1CC(F)(F)F | recombinant human CL receptor/RAMP1 (Homo sapiens, UniProt O60894+Q16602) | 10.44 |
| Cc1c(F)cccc1[C@@H]1C[C@H](NC(=O)c2ccc3c(c2)C[C@@]2(C3)C(=O)NC(=O)N2C)C(=O)N(CC(F)(F)F)[C@@H]1C | recombinant human CL receptor/RAMP1 (Homo sapiens, UniProt O60894+Q16602) | 9.30 |

Now, please, on to the next compound.
Entry C[C@@H]1[C@H](c2ccccc2)C[C@H](NC(=O)c2ccc3c(c2)C[C@@]2(C3)C(=O)NC(=O)N2C)C(=O)N1CC(F)(F)F : pKi on recombinant human CL receptor/RAMP1 (Homo sapiens, UniProt O60894+Q16602) = 9.44
